# TEST: differential killing of epithelial or mesenchymal cells, primary screen, imaging, PC-3E GFP, TEM4-18 mCherry, co-culture (AID 1345086);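 note: cells exposed to compound for 72 h before imaging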
# EXPERIMENTAL CONTEXT: imaging cell counts, measured here: epithelial PC-3E GFP cell survival, at 1 µM
For each record, write down the corresponding normalised cell number.
# respond with the number and nothing more

Request: Please give the measured normalised cell number for this compound: CC(=O)O[C@H]1C(=O)[C@@]2(C)C([C@H](OC(=O)c3ccccc3)[C@]3(O)C[C@H](OC(=O)[C@H](O)[C@@H](NC(=O)c4ccccc4)c4ccccc4)C(C)=C1C3(C)C)[C@]1(OC(C)=O)CO[C@@H]1C[C@@H]2O (some centres undefined)
Response: 0.23

Request: Please give the measured normalised cell number for this compound: CNCC[C@@H](Oc1ccccc1)c1ccccc1
Response: 1.27

Request: Please give the measured normalised cell number for this compound: N#C[C@@H]1C[C@@H]2C[C@@H]2N1C(=O)[C@@H](N)C12CC3CC(CC(O)(C3)C1)C2
Response: 1.31

Request: Please give the measured normalised cell number for this compound: NC(Cc1c[nH]c2ccccc12)C(=O)O (centres undefined)
Response: 0.98

###

# TEST: differential killing of epithelial or mesenchymal cells, primary screen, imaging, PC-3E GFP, TEM4-18 mCherry, co-culture (AID 1345086);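 note: cells exposed to compound for 72 h before imaging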;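 for red/green cell ratio (normalised): normalised mesenchymal count divided by normalised epithelial count so high means epithelial killing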
# EXPERIMENTAL CONTEXT: imaging cell counts, at 1 µM, actives lie on both sides, counts scaled to control wells, 1 = unselective
Calls of active or inactive are those of the source.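 How the source made its calls: active means compounds killing one labelled cell type while sparing the other, by normalised counts and ratio limits, not self-fluorescent; inactive means the rest.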 Numbered stars: 1 amine (or outer) side, 2 acyl side, 3 side chain; on linkers, the order of the positions; unused ones are H or OH. Bridge positions count the residues as written; N and C are the ends. Square brackets hold non-standard residues; d marks the D form. Peptide text beside a SMILES is read from it. * marks the point of attachment. ξ: configuration not given here. ΔAla(E,3-NHCONH2) = NC(=O)N/C=C(/N)C(=O)O; X1 = NC1=NCCC(C(N[*:1])C(=O)[*:2])N1; ξβ3hOrn = NCCCC(N)CC(=O)*; Dap = NC[CH](N)C(=O)O
REPORTED ENDPOINT: red/green cell ratio (normalised)

Request: Please give the measured red/green cell ratio (normalised) for this molecule: Cc1cc(-n2c(=O)[nH]c(=O)n(C)c2=O)ccc1Oc1ccc(SC(F)(F)F)cc1
Response: 0.98 (inactive)

Request: Please give the measured red/green cell ratio (normalised) for this molecule: CC1(C)O[C@@H]2CC3C4C[C@H](F)C5=CC(=O)CC[C@]5(C)C4[C@@H](O)C[C@]3(C)[C@]2(C(=O)CO)O1 (some centres not stated)
Response: 1.21 (inactive)

Request: Please give the measured red/green cell ratio (normalised) for this molecule: COC(=O)C[C@@H]1C2(C)C(=O)[C@@H](CC3C2CC[C@]2(C)C3CC(=O)O[C@H]2c2ccoc2)[C@H](OC(C)=O)C1(C)C (some centres not stated)
Response: 0.92 (inactive)

Request: Please give the measured red/green cell ratio (normalised) for this molecule: CCCCCCCCCCC[C@@H](C[C@H]1OC(=O)[C@H]1CCCCCC)OC(=O)[C@@H](CC(C)C)NC=O
Response: 1.11 (inactive)

Request: Please give the measured red/green cell ratio (normalised) for this molecule: NCCCC(N)CC(=O)NCC1NC(=O)C(CO)NC(=O)C(N)CNC(=O)C(C2CCN=C(N)N2)NC(=O)/C(=C\NC(N)=O)NC1=O (stereo not drawn) (H-[Dap]S[Dap](ξβ3hOrn)[ΔAla(E,3-NHCONH2)][X1]; lactam 1-C; configuration not given here)
Response: 0.98 (inactive)

Request: Please give the measured red/green cell ratio (normalised) for this molecule: C[C@H]1COC2=C1C(=O)C(=O)c1c2ccc2c1CCCC2(C)C
Response: 0.82 (inactive)

Request: Please give the measured red/green cell ratio (normalised) for this molecule: COC1=CC(=O)C[C@@H](C)[C@]12Cc1c(Cl)c(OC)cc(OC)c1C2=O
Response: 0.76 (inactive)

From: PubChem BioAssay
